Every entry's value here was drawn from patent US20190300605A1.

Molecular target: T1, human MAdCAM (full length) (human, UniProt Q13477 19-382)
T1 sequence (looked up): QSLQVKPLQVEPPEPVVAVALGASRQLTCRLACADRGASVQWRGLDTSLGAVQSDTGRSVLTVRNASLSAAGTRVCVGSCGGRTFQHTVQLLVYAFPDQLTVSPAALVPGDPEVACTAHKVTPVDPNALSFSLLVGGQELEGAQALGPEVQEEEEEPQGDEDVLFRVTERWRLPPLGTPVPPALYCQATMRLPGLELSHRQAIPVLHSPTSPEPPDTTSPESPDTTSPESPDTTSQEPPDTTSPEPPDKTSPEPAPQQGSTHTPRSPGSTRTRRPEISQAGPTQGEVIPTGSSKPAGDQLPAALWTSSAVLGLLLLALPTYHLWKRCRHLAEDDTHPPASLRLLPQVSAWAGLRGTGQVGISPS
Test: cell-based or functional assay
property-label: Mean IC50, JY cell adhesion, MAdCAM FlpIn CHO Assay (µg/mL)
One number for each entry, in µg/mL.

binder anti-MAdCAM monoclonal antibody 6.22.2 (antibody, human IgG4, kappa, V domains shown, human IgG4 kappa from hybridoma 6.22.2) VH: QVQLVESGGGVVQPGRSLRLSCAASGHTFSSDGMHWVRQAPGKGLEWVAIIWYDGSNKYYADSVKGRFTISRDNSKNTLYLQMNSLRAEDTAVYYCARDPGYYYGMDVWGQGTTVTVSS VL: EIVLTQSPDFQSVTPKEKVTITCRASQRIGSSLHWYQQKPDQSPKLLIKYASQSFSGVPSRFSGSGSGTNFTLTINGLEAEDAATYYCHQSGRLPLTFGGGTKVEIKR , Mean IC50, JY cell adhesion, MAdCAM FlpIn CHO Assay observed: 0.573
